Experiment: Cytotoxicity against human MT4 cells assessed as reduction in cell viability
Type: toxicity, cell-based
This section presents molecules with their documented log10(CC50) values.
testReadout: log10(CC50) (log10 of the value in µM)

INSERT INTO measurements (smilescode, endpointresult) VALUES
  ('COc1ccc(N(C)C(=O)[C@H](Cc2cc(F)cc(F)c2)NC(=O)CN2CCN(S(=O)(=O)c3ccc(Br)cc3)CC2)cc1', 1.12),
  ('COc1ccc(N(C)C(=O)[C@H](Cc2cc(F)cc(F)c2)NC(=O)CN2CCN(S(=O)(=O)c3ccc(NC(C)=O)cc3)CC2)cc1', 1.96),
  ('COc1ccc(N(C)C(=O)[C@H](Cc2cc(F)cc(F)c2)NC(=O)CN2CCN(S(=O)(=O)c3cccc(N)c3)CC2)cc1', 2.04),
  ('COc1ccc(N(C)C(=O)[C@H](Cc2cc(F)cc(F)c2)NC(=O)CN2CCN(S(=O)(=O)c3cccc([N+](=O)[O-])c3)CC2)cc1', 1.92),
  ('COc1ccc(N(C)C(=O)[C@H](Cc2cc(F)cc(F)c2)NC(=O)CN2CCN(S(=O)(=O)c3ccccc3F)CC2)cc1', 2.26),
  ('COc1ccc(N(C)C(=O)[C@H](Cc2cc(F)cc(F)c2)NC(=O)CN2CCN(S(=O)(=O)c3ccc(N)cc3)CC2)cc1', 2.07);

Numbers sourced from ChEMBL document CHEMBL5344428.
